Attribution: patent US20210347865A1

- tested target: T1, native human ApoC3 (human, UniProt P02656 21-99, biotinylated in the captured-antigen assays (Tables 6 and 8); sites not stated)
- T1 construct: also called nhuApoC3; native huApoC3
- T1 sequence (P02656 21-99): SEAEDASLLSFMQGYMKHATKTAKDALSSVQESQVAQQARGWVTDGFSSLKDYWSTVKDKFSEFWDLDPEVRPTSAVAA
- protocol text: SPR, antigen immobilized on CM5 chip, IgG as analyte, pH 7.4
pKd: −log10 of the molar value.

{"binder": "29G02 IgG (antibody, V domains shown) VH: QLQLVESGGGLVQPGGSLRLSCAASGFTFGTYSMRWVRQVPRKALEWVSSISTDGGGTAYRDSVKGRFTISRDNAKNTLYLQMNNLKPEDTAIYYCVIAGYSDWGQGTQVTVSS VL: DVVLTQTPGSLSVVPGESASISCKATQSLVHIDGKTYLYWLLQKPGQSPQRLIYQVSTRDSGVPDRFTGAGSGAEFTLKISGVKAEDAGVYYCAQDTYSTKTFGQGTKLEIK", "pKd": 11.00}
{"binder": "29A06 IgG (antibody, V domains shown) VH: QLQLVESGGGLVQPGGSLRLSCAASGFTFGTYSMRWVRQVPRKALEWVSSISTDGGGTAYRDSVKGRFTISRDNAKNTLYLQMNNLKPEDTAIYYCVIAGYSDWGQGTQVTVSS VL: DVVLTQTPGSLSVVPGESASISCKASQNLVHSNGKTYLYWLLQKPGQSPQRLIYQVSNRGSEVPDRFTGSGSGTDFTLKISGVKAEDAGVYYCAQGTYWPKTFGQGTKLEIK", "pKd": 10.15}
{"binder": "29G11 IgG (antibody, V domains shown) VH: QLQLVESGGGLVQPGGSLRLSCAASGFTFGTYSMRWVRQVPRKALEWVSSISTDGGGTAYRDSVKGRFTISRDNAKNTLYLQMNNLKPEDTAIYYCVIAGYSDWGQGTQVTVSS VL: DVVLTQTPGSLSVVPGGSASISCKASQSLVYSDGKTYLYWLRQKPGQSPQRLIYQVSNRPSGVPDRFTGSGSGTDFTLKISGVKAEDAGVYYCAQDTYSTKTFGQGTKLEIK", "pKd": 10.40}
